# System: RK3E-Transgene AFF3 (FGFR fusion stably transfected RK3E cells)
# test-summary: Drug response testing (Cell Titer-Glo proliferation), RK3E FGFR2:AFF3
# condition-parameters: Rattus norvegicus, 72 h, read-out: Stimulated Proliferation (IC50)
test-readout: IC50 (nM)

>>> df
                                   compound  test_readout  assay_result
0  CCN1CCN(c2ccc(Nc3cc(N(C)C(=O)Nc4c(Cl)c(OC)cc(OC)c4Cl)ncn3)cc2)CC1 [NVP-BGJ398]          IC50          2.27

----------
# System: RK3E-Transgene FGFR3
# test-summary: Drug response testing (Cell Titer-Glo proliferation), RK3E FGFR3
# condition-parameters: Rattus norvegicus, 72 h, read-out: Stimulated Proliferation (IC50)
This section presents compounds with their documented IC50 values.
test-readout: IC50 (µM)

>>> print(df.to_string())
                                   compound  test_readout  unit_string  assay_result
0  CCN1CCN(c2ccc(Nc3cc(N(C)C(=O)Nc4c(Cl)c(OC)cc(OC)c4Cl)ncn3)cc2)CC1 [NVP-BGJ398]          IC50           µM          6.34
1  COc1cc(CCc2cc(NC(=O)c3ccc(N4C[C@@H](C)N[C@@H](C)C4)cc3)n[nH]2)cc(OC)c1 [AZD4547]          IC50           µM          5.69

From: patent US12037644B2
